Form field: AC50 (one value per entry).
# systemUnderTest: human Matrix Metalloproteinase-9 (MMP9), MMP9 (gene 4318) (UniProt P14780)
# Sequence (P14780 whole entry, looked up): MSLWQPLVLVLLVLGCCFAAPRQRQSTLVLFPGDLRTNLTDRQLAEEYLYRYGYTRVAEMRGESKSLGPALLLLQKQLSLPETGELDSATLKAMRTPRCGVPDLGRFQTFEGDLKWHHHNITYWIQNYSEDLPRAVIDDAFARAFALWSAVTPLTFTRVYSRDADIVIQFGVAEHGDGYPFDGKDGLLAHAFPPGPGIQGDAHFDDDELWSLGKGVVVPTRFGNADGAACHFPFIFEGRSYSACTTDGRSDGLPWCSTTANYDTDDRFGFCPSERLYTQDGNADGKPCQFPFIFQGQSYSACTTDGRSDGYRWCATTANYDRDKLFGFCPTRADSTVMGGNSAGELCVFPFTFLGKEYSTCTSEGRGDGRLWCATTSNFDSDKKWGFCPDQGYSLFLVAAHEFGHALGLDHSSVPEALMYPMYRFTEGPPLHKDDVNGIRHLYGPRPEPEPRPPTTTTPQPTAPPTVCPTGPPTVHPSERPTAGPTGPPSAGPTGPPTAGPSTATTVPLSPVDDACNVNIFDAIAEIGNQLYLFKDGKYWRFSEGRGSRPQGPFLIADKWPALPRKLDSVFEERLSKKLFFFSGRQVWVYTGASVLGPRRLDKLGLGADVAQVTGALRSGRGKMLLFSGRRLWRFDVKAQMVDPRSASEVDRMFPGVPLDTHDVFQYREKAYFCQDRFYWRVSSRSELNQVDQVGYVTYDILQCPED
# measurementNotes: NVS_ENZ_hMMP9: NovaScreen (NVS) Enzymatic Assay for human Matrix Metalloproteinase-9 (MMP9) (AID 2283190);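 also: cell-free recombinant MMP9 protease activity read by fluorescent substrate signal; active means inhibition seen as loss of fluorescence signal versus DMSO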
Results filed as inconclusive are left out. Active and inactive are the calls of the source. The calls were made as follows: active = hit-call score of the fitted dose curve at least 0.9, where 1 is the maximum; inconclusive = response in the unintended direction; inactive = score below 0.9.

> print(dat)
   compoundsmiles                           systemundertest  readouttype         testvalue
1   C[N+](=O)[O-]  human Matrix Metalloproteinase-9 (MMP9), MMP9 (gene 4318) (UniProt P14780)         AC50  1.45 µM (active)

Reported AC50 for human Matrix Metalloproteinase-9 (MMP9), MMP9 (gene 4318) (UniProt P14780), given `N#Cc1cccc(C#N)c1` ?
7.24 µM (active)

Please provide the recorded AC50 for `CN(C)CCC#N` , tested on human Matrix Metalloproteinase-9 (MMP9), MMP9 (gene 4318) (UniProt P14780).
9.19 µM (active)

What value of AC50 on human Matrix Metalloproteinase-9 (MMP9), MMP9 (gene 4318) (UniProt P14780) does `CC(C)CCCCCCCOC(=O)c1ccccc1C(=O)OCCCCCCCC(C)C` have?
10.9 µM (active)

Quick check: AC50 on human Matrix Metalloproteinase-9 (MMP9), MMP9 (gene 4318) (UniProt P14780), item `CCOP(=O)(OCC)OCC` ?
5.9 µM (active)

GET /values?readout=AC50&system=human Matrix Metalloproteinase-9 (MMP9), MMP9 (gene 4318) (UniProt P14780)&item= `CCC[N+](=O)[O-]`
6.06 µM (active)

---

# systemUnderTest: human MET Proto-Oncogene, Receptor Tyrosine Kinase (MET), MET (gene 4233)
# measurementNotes: NVS_ENZ_hMet: NovaScreen (NVS) Enzymatic Assay for human MET Proto-Oncogene, Receptor Tyrosine Kinase (MET) (AID 2283180)
Inconclusive results are not listed. Active and inactive are the calls of the source. The calls were made as follows: active = hit-call score of the fitted dose curve at least 0.9, where 1 is the maximum; inconclusive = response in the unintended direction; inactive = score below 0.9.
Use one of these outcomes when replying: T = active, F = inactive

> print(dat)
                                   compound                           systemundertest  classlabel
1                       CC(C)=CCC/C(C)=C/CO  human MET Proto-Oncogene, Receptor Tyrosine Kinase (MET), MET (gene 4233)           F
2  COc1cc(C(=O)NC2CCN(C)CC2)ccc1Nc1ncc2c(n1)N(C1CCCC1)CC(F)(F)C(=O)N2C  human MET Proto-Oncogene, Receptor Tyrosine Kinase (MET), MET (gene 4233)           F
3  O=C(O)c1ccc2c(c1)nc(C(=O)NC1CCN(C3CC3)CC1)n2Cc1cc(-c2ccc(Cl)s2)on1  human MET Proto-Oncogene, Receptor Tyrosine Kinase (MET), MET (gene 4233)           F
4                    CC(C)CCCCCCc1ccc(O)cc1  human MET Proto-Oncogene, Receptor Tyrosine Kinase (MET), MET (gene 4233)           F
5  CNS(=O)(=O)c1cc(C(=O)N2CCC(CCN3C4CCC3CC(n3c(C)nc5ccccc53)C4)(c3cccc(F)c3)CC2)c(Cl)cc1F (stereo not given)  human MET Proto-Oncogene, Receptor Tyrosine Kinase (MET), MET (gene 4233)           F
6  O=C(NO)C1(NS(=O)(=O)c2ccc(Oc3ccc(F)cc3)cc2)CCOCC1  human MET Proto-Oncogene, Receptor Tyrosine Kinase (MET), MET (gene 4233)           F

Recorded call for `O=C(c1ccccc1)c1ccccc1` ?
F

Please share the test call associated with `COc1ccc(OC(F)(F)F)cc1CN[C@H]1CCCN[C@H]1c1ccccc1` .
F

Kindly provide the recorded test outcome for the following compound: `CCCCCCCCCCCCCCOS(=O)(=O)O`
T

Which outcome was entered for the compound `N[C@@H](Cc1cc(I)c(Oc2ccc(O)c(I)c2)c(I)c1)C(=O)O` in this test?
F

Lab log entry: `CCCOC(=O)c1cc(O)c(O)c(O)c1` — outcome as called in the assay?
F

State the result this test recorded for `Cc1ncc([C@@H](CCCCCCc2ccc3c(n2)NCCC3)CC(=O)O)cn1` .
F

// param item: `CCN(CC)CCNc1ccc(CNC=O)c2sc3ccc(OC)cc3c(=O)c12` ; yields the recorded call
F

Name the outcome recorded for `CCCC(CCC)C(=O)O` in the assay.
F

// outcome(item) with item = `OCC(CO)n1cnc(-c2ccc(F)cc2)c1-c1ccnc(Oc2ccccc2)n1`
F

Recorded test outcome, item CC(O)CO (stereo not given)
F

Which result was noted for this compound in the test: `Nc1ccccc1N`
T

Name the outcome recorded for `O=C(O)c1cccc(Oc2ccccc2)c1` in the assay.
F

What was the test verdict on `FC(F)(F)C(F)(F)C(F)(F)C(F)(F)C(F)(F)C(F)(F)CCI` ?
F

What classification did `CCc1nc(N)nc(N)c1-c1ccc(Cl)cc1` end up with in this test?
F

Dear colleague, could you share the recorded outcome for `CCN(Cc1cccnc1)C(=O)c1cccc(Cl)c1[C@]1(C)C(=O)N(Cc2ccc(OC)cc2OC)c2ccc(Cl)cc21` when you have a moment?
F

Record request — test call for `NCCO`
F

# outcome recorded in this test, key = `CC(=O)Oc1ccccc1C(=O)O`
F

Identify the outcome logged in this assay for the compound shown: `CN(C)c1ccc(N=NS(=O)(=O)O)cc1`
F

Record lookup: outcome of this test for `CCCCCCCCCCCCc1ccccc1S(=O)(=O)O` ?
T
